MEASUREMENT_NOTES: Determination of the hygroscopicity (weight increase in a stability chamber)
Format: physicochemical
CONDITION_DESCRIPTION: Table 6; time 24 h; 25° C., 65% relative air humidity
QUANTITY: Mean mass increase (%)

O=C([O-])CN(CCN(CC(=O)[O-])CC(=O)[O-])CCN(CC(=O)[O-])CC(=O)[O-].[Na+].[Na+].[Na+].[Zn+2] [Amorph Il]
7.82
O=C([O-])CN(CCN(CC(=O)[O-])CC(=O)[O-])CCN(CC(=O)[O-])CC(=O)[O-].[Na+].[Na+].[Na+].[Zn+2] [Form I]
3.91
O=C([O-])CN(CCN(CC(=O)[O-])CC(=O)[O-])CCN(CC(=O)[O-])CC(=O)[O-].[Na+].[Na+].[Na+].[Zn+2] [Form II, B]
5.18

a = O=C([O-])CN(CCN(CC(=O)[O-])CC(=O)[O-])CCN(CC(=O)[O-])CC(=O)[O-].[Na+].[Na+].[Na+].[Zn+2] [Form II, A]
b = O=C([O-])CN(CCN(CC(=O)[O-])CC(=O)[O-])CCN(CC(=O)[O-])CC(=O)[O-].[Na+].[Na+].[Na+].[Zn+2] [Amorph I]
Q) # compare Mean mass increase for a vs b ; return the one with the smaller value Refer to your chosen item by its label in the answer.
A) a

Where these numbers come from: patent US9447120B2
